- protocol.text: physchem
- experimental.parameters: water
measured.parameter: solubility (µg/mL)
Give the number; µg/mL is assumed, so skip it.

Incoming: State the recorded solubility for this entry: CC(C)C[C@H](NC(=O)[C@H](CCc1ccccc1)NC(=O)CN1CCOCC1)C(=O)N[C@@H](Cc1ccccc1)C(=O)N[C@@H](CC(C)C)C(=O)[C@@]1(C)CO1
Outgoing: 2

====

- protocol.text: physchem
- experimental.parameters: pH 5, aqueous buffer
measured.parameter: solubility

Incoming: State the recorded solubility for this entry: CC(C)C[C@H](NC(=O)[C@H](CCc1ccccc1)NC(=O)CN1CCOCC1)C(=O)N[C@@H](Cc1ccccc1)C(=O)N[C@@H](CC(C)C)C(=O)[C@@]1(C)CO1 [carfilzomib]
Outgoing: 2 µg/mL

====

- protocol.text: physchem
- experimental.parameters: pH 1, simulated gastric fluid
measured.parameter: solubility (µg/mL)
Give the number; µg/mL is assumed, so skip it.

Incoming: State the recorded solubility for this entry: CC(C)C[C@H](NC(=O)[C@H](CCc1ccccc1)NC(=O)CN1CCOCC1)C(=O)N[C@@H](Cc1ccccc1)C(=O)N[C@@H](CC(C)C)C(=O)[C@@]1(C)CO1 [carfilzomib]
Outgoing: 1800

====

- protocol.text: physchem
- experimental.parameters: pH 3, aqueous buffer
measured.parameter: solubility (µg/mL)
Give the number; µg/mL is assumed, so skip it.

Incoming: State the recorded solubility for this entry: CC(C)C[C@H](NC(=O)[C@H](CCc1ccccc1)NC(=O)CN1CCOCC1)C(=O)N[C@@H](Cc1ccccc1)C(=O)N[C@@H](CC(C)C)C(=O)[C@@]1(C)CO1 [carfilzomib]
Outgoing: 20
